# study-target: GST-Bcl-2 (Homo sapiens, UniProt P10415)
# Sequence (P10415 whole entry): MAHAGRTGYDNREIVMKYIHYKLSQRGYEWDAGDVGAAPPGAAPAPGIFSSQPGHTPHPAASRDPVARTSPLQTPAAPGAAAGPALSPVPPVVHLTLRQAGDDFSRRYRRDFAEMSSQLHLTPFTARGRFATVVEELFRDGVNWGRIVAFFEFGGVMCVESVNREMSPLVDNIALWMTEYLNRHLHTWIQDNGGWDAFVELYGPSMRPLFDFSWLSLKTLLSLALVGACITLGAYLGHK
# procedure-text: TR-FRET binding assay, GST-Bcl-2 with F-Bak peptide probe
# experimental-parameters: TR-FRET Binding Affinity, GST-Bcl-2, F-Bak peptide probe
readout-type: log10 of Ki (log10 of the value in nM)
Recorded Ki (log10, nM)

# example entries with known answers
CC1(C)CCC(CN2CCN(c3ccc(C(=O)NS(=O)(=O)c4ccc(NC5CCN(CCCO)CC5)c([N+](=O)[O-])c4)c(Oc4ccc5[nH]ccc5c4)c3)CC2)=C(c2ccc(Cl)cc2)C1	-1.60
CN1CCN(Nc2ccc(S(=O)(=O)NC(=O)c3ccc(N4CCN(CC5=C(c6ccc(Cl)cc6)CC(C)(C)CC5)CC4)cc3Oc3cccc4[nH]ccc34)cc2S(=O)(=O)C(F)(F)F)CC1	-0.30
CN(C)CCOc1cccc(-c2ccc(Cl)cc2)c1CN1CCN(c2ccc(C(=O)NS(=O)(=O)c3ccc(NCC4CCOCC4)c([N+](=O)[O-])c3)c(Oc3cccc4[nH]ccc34)c2)CC1	-1.29
CC1(C)CCC(CN2CCN(c3ccc(C(=O)NS(=O)(=O)c4cnc(OCC5(F)CCOCC5)c(Cl)c4)c(Oc4cccc5[nH]ccc45)c3)CC2)=C(c2ccc(Cl)cc2)C1	-1.40
CC(C)(C)c1ccc(CN2CCN(c3ccc(C(=O)NS(=O)(=O)c4ccc(NCC5CCOCC5)c([N+](=O)[O-])c4)c(Oc4ccc5[nH]ccc5c4)c3)CC2)c(-c2ccc(Cl)cc2)c1	1.11
CC1(C)CCC(CN2CCN(c3ccc(C(=O)NS(=O)(=O)c4ccc(NCCCN5CCCC5)c([N+](=O)[O-])c4)c(Oc4ccc5[nH]ccc5c4)c3)CC2)=C(c2ccc(Cl)cc2)C1	-1.57
O=C(NS(=O)(=O)c1ccc(NCC2CCOCC2)c(S(=O)(=O)C(F)(F)F)c1)c1ccc(N2CCN(Cc3cc(OCCN4CCOCC4)ccc3-c3ccc(Cl)cc3)CC2)cc1Oc1ccccc1	0.36
O=C(NS(=O)(=O)c1ccc(NCCCN2CCOCC2)c([N+](=O)[O-])c1)c1ccc(N2CCN(Cc3ccccc3-c3ccc(Cl)cc3)CC2)cc1Oc1cccc2[nH]ccc12	0.03

If you can, please state the reported log10 of Ki value of CC1(C)CCC(CN2CCN(c3ccc(C(=O)NS(=O)(=O)c4ccc(NCCN5CCNC(=O)C5)c([N+](=O)[O-])c4)c(Oc4cccc5[nH]ccc45)c3)CC2)=C(c2ccc(Cl)cc2)C1 .
-0.75

If you can, please state the reported log10 of Ki value of O=C(NS(=O)(=O)c1ccc(NCC2CCOCC2)c([N+](=O)[O-])c1)c1ccc(N2CCN(Cc3ccccc3-c3ccc(Cl)cc3)CC2)cc1Oc1cccc2[nH]ccc12 .
-0.08

If you can, please state the reported log10 of Ki value of CN1CCN(c2ccc(S(=O)(=O)NC(=O)c3ccc(N4CCN(CC5=C(c6ccc(Cl)cc6)CC(C)(C)CC5)CC4)cc3Oc3ccc4[nH]ccc4c3)cc2[N+](=O)[O-])CC1 .
0.32

If you can, please state the reported log10 of Ki value of CC1(C)CCC(CN2CCN(c3ccc(C(=O)NS(=O)(=O)c4ccc(NN5CCS(=O)(=O)CC5)c([N+](=O)[O-])c4)c(Oc4ccc5[nH]ccc5c4)c3)CC2)=C(c2ccc(Cl)cc2)C1 .
-1.09

If you can, please state the reported log10 of Ki value of O=C(NS(=O)(=O)c1ccc(NCC2CCOCC2)c([N+](=O)[O-])c1)c1ccc(N2CCN(Cc3cc(OCCCN4CCCCC4)ccc3-c3ccc(Cl)cc3)CC2)cc1Oc1ccccc1 .
-1.02

If you can, please state the reported log10 of Ki value of CC1(C)CCC(CN2CCN(c3ccc(C(=O)NS(=O)(=O)c4ccc(NC5CCN(CCCO)CC5)c([N+](=O)[O-])c4)c(Oc4cccc5[nH]ccc45)c3)CC2)=C(c2ccc(Cl)cc2)C1 .
-1.41

If you can, please state the reported log10 of Ki value of CN1CCC(CNc2ccc(S(=O)(=O)NC(=O)c3ccc(N4CCN(CC5=C(c6ccc(Cl)cc6)CC(C)(C)CC5)CC4)cc3Oc3ccc4[nH]ccc4c3)cc2[N+](=O)[O-])CC1 .
-1.11

If you can, please state the reported log10 of Ki value of COc1ccc(Nc2ccc(S(=O)(=O)NC(=O)c3ccc(N4CCN(CC5=C(c6ccc(Cl)cc6)CC(C)(C)CC5)CC4)cc3Oc3ccc4[nH]ccc4c3)cc2[N+](=O)[O-])cc1O .
0.40

If you can, please state the reported log10 of Ki value of CC(C1=C(c2ccc(Cl)cc2)CC(C)(C)CC1)N1CCN(c2ccc(C(=O)NS(=O)(=O)c3ccc(NC4CCN(C5CCOCC5)CC4)c([N+](=O)[O-])c3)c(Oc3ccc4[nH]ccc4c3)c2)CC1 (centres unmarked) .
-1.32

If you can, please state the reported log10 of Ki value of CN(C)CCCNc1ccc(S(=O)(=O)NC(=O)c2ccc(N3CCN(Cc4ccccc4-c4ccc(Cl)cc4)CC3)cc2Oc2ccccc2)cc1C(F)(F)F .
0.64

If you can, please state the reported log10 of Ki value of CC1(C)CCC(CN2CCN(c3ccc(C(=O)NS(=O)(=O)c4ccc(NCCN5CCCCC5=O)c([N+](=O)[O-])c4)c(Oc4ccc5[nH]ccc5c4)c3)CC2)=C(c2ccc(Cl)cc2)C1 .
-0.34

If you can, please state the reported log10 of Ki value of COCCNc1ccc(S(=O)(=O)NC(=O)c2ccc(N3CCN(CC4=C(c5ccc(Cl)cc5)CC(C)(C)CC4)CC3)cc2Oc2cccc3[nH]ccc23)cc1[N+](=O)[O-] .
-0.60

Reference source for all entries: patent US9073855B2
